assay: Cytotoxicity in HepG2.117 cells, ATPlite Luminescence Assay; type: cell-based, human; settings: human, incubated for 3 days, mean value, read-out: TOX-HepG2.117 CC50 (μM, mean value)
endpoint: CC50 at 3 days

Value of measured CC50 at 3 days for the entry CCOc1cc(CN2CCn3nc4c(c3C2=O)CN(C(=O)c2ccc(Cl)c(Cl)c2)[C@H](C)C4)nc2nc(C(F)(F)F)nn12 [Example C243] : > 50 µM

Note to self: CC50 at 3 days recorded for COc1ccc(C(C)N2CCn3nc4c(c3C2=O)CN(C(=O)c2ccc(Cl)c(Cl)c2)[C@H](C)C4)cc1F (stereo partly shown) [Example C86] was > 50 µM

Briefly, CC50 at 3 days measured for CC(c1nc(C2CC2)no1)N1CCn2nc3c(c2C1=O)CN(C(=O)c1ccc(Cl)c(Cl)c1)[C@H](C)C3 (stereo partly shown) [Example C190] : 33.1 µM

New cases:
The value of CC50 at 3 days measured for the molecule COc1ccccc1C(C)N1CCn2nc3c(c2C1=O)CN(C(=O)c1ccc(Cl)c(Cl)c1)[C@H](C)C3 (stereo partly shown) [Example C227] turned out to be 37.3 µM
